- Tested on: Staphylococcus aureus
- Assay explanation: Antibacterial activity against Staphylococcus aureus ATCC 29213 by broth microdilution method
- Format: functional

[
  {
    "Molecule": "COc1ccc(Cc2cocc2Cc2ccc(OC)cc2)cc1",
    "MIC": "> 128 µg/mL"
  },
  {
    "Molecule": "O=C1OC(O)C(Cc2ccc(O)cc2)=C1Cc1ccc(O)cc1 (stereo unspecified)",
    "MIC": "> 128 µg/mL"
  },
  {
    "Molecule": "COc1ccc(CC2C(=O)OC3OC32Cc2ccc(OC)cc2)cc1 (stereo unspecified)",
    "MIC": "> 128 µg/mL"
  },
  {
    "Molecule": "Oc1ccc(Cc2cocc2Cc2ccccc2O)cc1",
    "MIC": "64 µg/mL"
  },
  {
    "Molecule": "COc1ccc(CC23OC2OC2OC23Cc2ccc(OC)cc2)cc1 (stereo unspecified)",
    "MIC": "> 128 µg/mL"
  },
  {
    "Molecule": "Oc1ccc(Cc2cocc2Cc2ccc(O)cc2)cc1",
    "MIC": "32 µg/mL"
  }
]

====

- Assay explanation: Cytotoxicity against human HaCaT cells assessed as reduction in cell viability at 32 ug/ml incubated for 24 hrs by MTT assay
- Type: cell-based
- Protocol conditions: at 32 µg/mL, read-out: INH

[
  {
    "Smiles repr": "Oc1ccc(Cc2cocc2Cc2ccc(O)cc2)cc1",
    "cytotoxicity at 24 h, 32 ug/ml, %": 40
  }
]

====

- Test system: Staphylococcus aureus
- Assay explanation: Antibacterial activity against Staphylococcus aureus ATCC 29213 by broth microdilution method
- Format: functional
Each entry below carries its recorded MIC.
Experimental endpoint: MIC

[
  {
    "Compound": "COc1ccc(Cc2cocc2Cc2ccc(O)cc2)cc1",
    "Tgt": "Staphylococcus aureus",
    "Experimental endpoint": "MIC",
    "Endpoint value": "16 µg/mL"
  },
  {
    "Compound": "CC(=O)Oc1ccc(Cc2cocc2Cc2ccc(OC(C)=O)cc2)cc1",
    "Tgt": "Staphylococcus aureus",
    "Experimental endpoint": "MIC",
    "Endpoint value": "> 128 µg/mL"
  },
  {
    "Compound": "COc1ccc(Cc2cocc2Cc2ccccc2O)cc1",
    "Tgt": "Staphylococcus aureus",
    "Experimental endpoint": "MIC",
    "Endpoint value": "16 µg/mL"
  },
  {
    "Compound": "COc1ccc(Cc2cocc2Cc2ccccc2OC)cc1",
    "Tgt": "Staphylococcus aureus",
    "Experimental endpoint": "MIC",
    "Endpoint value": "> 128 µg/mL"
  },
  {
    "Compound": "COc1ccc(CC2=C(Cc3ccc(OC)cc3)C(O)OC2=O)cc1 (stereo not given)",
    "Tgt": "Staphylococcus aureus",
    "Experimental endpoint": "MIC",
    "Endpoint value": "> 128 µg/mL"
  }
]
